Test system: 922993-354-T-J3-PDC complex spheroid viability;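 note: spheroids exposed to the agents for one week; 100% = DMSO vehicle control wells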
Assay details: Anticancer human tumor 922993-354-T-J3-PDC patient-derived endometrial carcinoma cell line growth inhibition [POLQ]
Experimental parameters: second compound 0.316 µM; first compound 0.1 µM; hits give low values
Experimental: Multicellular complex tumor spheroid response to Polymerase (POL) inhibitors (novobiocin, ART-558, RP6685) in combination with a variety of drugs and investigational agents in selected tumor cell lines The POL inhibitors (novobiocin, ART-558, and RP6685) were evaluated both individually and in combination with standard of care and investigational anticancer small molecules within a complex spheroid model of solid tumors. . […]
Measured parameter: viability, T/C (%)
Give a bare numeral; the unit % is implied.

Examples with answers:
Lab book: viability, T/C of CC1COCCN1c1cc(C2(O)CC3CCC(C2)O3)c2cnn(-c3ccn[nH]3)c2n1 (stereo not drawn) + Nc1ccc(C#CCN(C(=O)Cc2ncc(C(F)(F)F)cc2C(F)(F)F)c2ccc(F)cc2)nn1 noted as 102

Documented viability, T/C of O=C(Nc1ccc(O)c(NS(=O)(=O)c2ccc(F)cc2)c1)c1ccc(-c2ccccc2)cc1 + Cc1cccc(N(C)C(=O)C2C(O)CCN2c2nc(C)cc(C(F)(F)F)c2C#N)c1 : 104

Attention now turns to another entry.
# viability, T/C (molecule: COc1cc2cc(C(=O)CCC(=O)O)sc2cc1OC + Nc1ccc(C#CCN(C(=O)Cc2ncc(C(F)(F)F)cc2C(F)(F)F)c2ccc(F)cc2)nn1 ) is 103
